Source of measurements: patent US9522159B2

testedTarget: PaMTADA (Pseudomonas aeruginosa, UniProt Q9HZ64)
Sequence (Q9HZ64 1-444): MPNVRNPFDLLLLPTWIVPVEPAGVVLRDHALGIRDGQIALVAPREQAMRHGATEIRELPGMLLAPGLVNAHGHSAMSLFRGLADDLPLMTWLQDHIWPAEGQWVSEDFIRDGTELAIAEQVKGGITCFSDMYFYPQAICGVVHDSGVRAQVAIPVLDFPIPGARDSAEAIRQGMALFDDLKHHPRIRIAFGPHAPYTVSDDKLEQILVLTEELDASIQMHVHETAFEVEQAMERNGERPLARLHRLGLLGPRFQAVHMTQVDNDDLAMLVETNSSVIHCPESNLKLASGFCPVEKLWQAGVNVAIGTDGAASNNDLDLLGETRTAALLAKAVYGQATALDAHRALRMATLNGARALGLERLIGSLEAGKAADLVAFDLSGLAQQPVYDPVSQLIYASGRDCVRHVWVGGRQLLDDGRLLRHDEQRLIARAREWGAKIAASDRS
measurementDescription: Inhibition assays for PaMTADA
Type: biochemical
measurementSetup: 25° C., pH 7.4, 100 μM MTA; read-out: PaMTADA Ki / dissociation constant
measurementKind: Ki (nM)
Lab book: enter the figure in nM, no units written.

Write down Ki measured for item O[C@@H]1CNC=Nc2c1ncn2[C@H]1C[C@H](O)[C@@H](CSc2ccccc2)O1 [PhTDCF, 5′-phenylthio-2′-deoxycoformycin]
0.13

----------
This section presents molecules with their documented Ki values.
testedTarget: PaMTADA (Pseudomonas aeruginosa)
measurementDescription: Inhibition assays for PaMTADA
Format: biochemical

[[record]]
molecule = "OC[C@H]1O[C@@H](n2cnc3c2NC=NC[C@H]3O)C[C@@H]1O [DCF, 2′-deoxycoformycin, reference compound]"
testedtarget = "PaMTADA (Pseudomonas aeruginosa)"
measurementkind = "Ki"
reported = "37000 pM"


Give a short answer stating reported Ki for CCCSCC1OC(n2cnc3c2N=CNCC3O)CC1O (stereo not drawn) .
67 pM

Input CSCC1OC(n2cnc3c2N=CNCC3O)CC1O (stereo not drawn) , output reported Ki.
8 pM
